Biological target: Recombinant HCV polymerase (Hepatitis C virus genotype 1b)
Construct: Recombinant HCV polymerase was tested for its ability to perform primer/template-directed transcription
Experiment: biochemical
Details: inhibition of polymerase-directed transcription; 30 min at 30° C; 30 nM enzyme; cpm data in triplicate
property-measured: IC50 (nM)

Answered cases to consult:
>  <molecule>
Cc1cc(C)n2nc(CC3=C(O)CC(CCc4cnc(C(C)(C)C#N)c(Cl)c4)(C4CCCC4)OC3=O)nc2n1 (racemic) [Example B(39)]

>  <reported-result>
12

$$$$
>  <molecule>
CCc1cc(CCC2(C3CCCC3)CC(O)=C(Cc3nc4nc(C)cc(C)n4n3)C(=O)O2)ccc1OCCN (centres unmarked) [A(71)]

>  <reported-result>
9

$$$$
>  <molecule>
CCc1cc(CCC2(C3CCCC3)CC(O)=C(Cc3nc4ncccn4n3)C(=O)O2)ccc1-c1ncco1 (centres unmarked) [A(136)]

>  <reported-result>
3

$$$$

A: CCc1cc(CCC2(C3CCCC3)CC(O)=C(Cc3nc4ncc(C)cn4n3)C(=O)O2)ccc1NS(C)(=O)=O (centres unmarked) [A(106)]
B: COc1cc(O)c(C(C)=O)cc1CCC1(C2CCCC2)CC(O)=C(Cc2nc3nc(C)cc(C)n3n2)C(=O)O1 (centres unmarked) [A(98)]
Determine, for A and B , which has the greater value of IC50. // output: label of the selected item B

====

Target: Recombinant HCV polymerase (Hepatitis C virus genotype 1b, UniProt P26663)
Construct: Recombinant HCV polymerase was tested for its ability to perform primer/template-directed transcription
Sequence (P26663 2420-3010): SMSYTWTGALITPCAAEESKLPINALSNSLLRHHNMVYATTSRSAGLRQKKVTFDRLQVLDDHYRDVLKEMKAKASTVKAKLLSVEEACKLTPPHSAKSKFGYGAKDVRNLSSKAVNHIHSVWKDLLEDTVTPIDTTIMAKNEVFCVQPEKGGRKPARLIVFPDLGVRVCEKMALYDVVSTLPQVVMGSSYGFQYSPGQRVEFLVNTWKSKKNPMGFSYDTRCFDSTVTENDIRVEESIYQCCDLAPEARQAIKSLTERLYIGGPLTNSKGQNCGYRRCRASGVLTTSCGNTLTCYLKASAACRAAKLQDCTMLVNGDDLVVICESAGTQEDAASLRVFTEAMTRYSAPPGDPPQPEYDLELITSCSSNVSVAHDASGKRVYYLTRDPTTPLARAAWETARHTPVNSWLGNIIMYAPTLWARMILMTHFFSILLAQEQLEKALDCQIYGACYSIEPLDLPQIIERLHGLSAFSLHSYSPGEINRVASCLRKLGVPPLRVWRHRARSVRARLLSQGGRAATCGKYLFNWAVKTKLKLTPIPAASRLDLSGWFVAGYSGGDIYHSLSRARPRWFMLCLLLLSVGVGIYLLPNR
Assay: biochemical
Settings: inhibition of polymerase-directed transcription; 30 min at 30° C; 30 nM enzyme; cpm data in triplicate
property-measured: IC50 (nM)

A: CCc1cc(CCC2(C3CCCC3)CC(O)=C(Cc3nc4nc(C)cc(C)n4n3)C(=O)O2)ccc1CNC(C)=O (single isomer, unassigned; enantiomer 1) [A(132)]
B: CCc1cc(CCC2(C3CCCC3)CC(=O)CC(=O)O2)ccc1CO (centres unmarked)
C: CCc1cncc(CCC2(C3CCCC3)CC(O)=C(Cc3nc4nc(C)cc(C)n4n3)C(=O)O2)c1 (centres unmarked)
Rank the items above by IC50, largest value first. Use the labels to give the requested order. B, A, C

A: CCc1cc(CCC2(C3CCCC3)CC(O)=C(Cc3nc4nc(C)cc(C)n4n3)C(=O)O2)ccc1OCCN(C)C(=O)OC(C)(C)C (centres unmarked)
B: COc1cc(OC)c(CCC2(C3CCCC3)CC(=O)C(Sc3nc(N)nc4nc[nH]c34)C(=O)O2)cc1Cl (centres unmarked)
Determine, for A and B , which has the greater value of IC50. // output: label of the selected item B
(B: 178 nM, A: 15 nM)

I: CCc1cc(CCC2(C3CCCC3)CC(O)=C(Cc3nc4ncc(C)cn4n3)C(=O)O2)ccc1CC#N (centres unmarked)
II: CCCOc1cc(O)c(CCC2(C3CCCC3)CC(O)=C(Cc3nc4nc(C)cc(C)n4n3)C(=O)O2)cc1CC (centres unmarked)
Determine, for I and II , which has the greater value of IC50. // output: label of the selected item II
(II: 7 nM, I: 3 nM)
